The reported measurements were obtained from patent US20210100246A1.

# method_summary: Accelerated stability test of 5% solutions in commercial solvents (54° C., 2 weeks, HPLC)
# Assay type: physicochemical
# conditions_used: solvent Propylene carbonate
Item-by-item account of percentage of degradation
Report as a plain number; the unit % is understood.

Known percentage of degradation results, listed for orientation:
CCCCCCSc1nc(C)c(N=CN(C)CC)cc1C [Compound 17]    0
CCN(C)C=Nc1cc(C)c(SCc2c(F)cccc2F)nc1C [Compound 39]    0.61
CCN(C)C=Nc1cc(Br)c(SCc2cccc(C(F)(F)F)c2)nc1C [Compound 1]    3

Fill in reported percentage of degradation for this entry: CCN(C)C=Nc1cc(C)c(SCC2CCCCC2)nc1C [Compound 40]
0

###

# Tested on: Uromyces Appendiculatus
# method_summary: Preventive fungicidal activity (5 days) against Uromyces Appendiculatus on beans
# Type: in vivo
# conditions_used: 30 ppm
metric: Activity P5 (%)
Provide only the numeric value, understood in %.

Supply Activity P5 value. Item: CCN(C)C=Nc1cc(C)c(SCCC(C)C)nc1C [Compound 2]
100

# return recorded Activity P5 for entry CCN(C)C=Nc1cc(C)c(SCc2cccc(C(F)(F)F)c2)nc1C [Compound 3]
100

Specify Activity P5 for CCN(C)C=Nc1cc(Br)c(SCc2cccc(C(F)(F)F)c2)nc1C [Compound 1] and stop.
90

Identify measured Activity P5 corresponding to CCN(C)C=Nc1cc(C)c(SCC2CCCCC2)nc1C [Compound 40]
100

Supply Activity P5 value. Item: CCN(C)C=Nc1cc(C)c(SCc2c(F)cccc2F)nc1C [Compound 39]
100

Look up Activity P5 of CCCCCCSc1nc(C)c(N=CN(C)CC)cc1C [Compound 17] and report it.
100

###

Below, each of the compounds is paired with its reported Activity P5 T (reduction of leaf area affected, parts treated directly) value.
# Tested on: Puccinia Recondita
# method_summary: Preventive fungicidal activity (5 days) against Puccinia Recondita on wheat
# Type: in vivo
# conditions_used: 250 ppm; wheat; treated parts (T)
Quote the value and follow it with the unit of measurement.

CCN(C)C=Nc1cc(C)c(SCc2cccc(C(F)(F)F)c2)nc1C    100%
CCN(C)C=Nc1cc(C)c(SCc2c(F)cccc2F)nc1C    98%
CCN(C)C=Nc1cc(Br)c(SCCC(C)C)nc1C    100%
CCN(C)C=Nc1cc(C)c(SCC2CCCCC2)nc1C    90%
CCN(C)C=Nc1cc(Br)c(SCc2cccc(C(F)(F)F)c2)nc1C    100%
CCCCCCSc1nc(C)c(N=CN(C)CC)cc1C    98%
CCN(C)C=Nc1cc(Br)c(OCCC(C)C)nc1C [CR1, reference compound]    80%

System Puccinia Recondita. Read-out Activity P5 T (reduction of leaf area affected, parts treated directly). Item "CCN(C)C=Nc1cc(C)c(SCCC(C)C)nc1C" . Report value.
100%

###

# method_summary: Accelerated stability test of 5% solutions in commercial solvents (54° C., 2 weeks, HPLC)
# Format: physicochemical
# conditions_used: solvent ADMA 10 (N,N-dimethyldecanamide)
Entries and their measured percentage of degradation follow.
Answer format: numeric, % implied, no suffix.

CCN(C)C=Nc1cc(C)c(SCC2CCCCC2)nc1C    1.09
CCN(C)C=Nc1cc(C)c(SCc2c(F)cccc2F)nc1C    0
CCN(C)C=Nc1cc(Br)c(SCc2cccc(C(F)(F)F)c2)nc1C    1.07

// switching to the query molecule
Note down percentage of degradation recorded for "CCCCCCSc1nc(C)c(N=CN(C)CC)cc1C"
1.57
